Where do these numbers come from? They come from patent US10065963B2.

Overview of reported pIC50 across a group of compounds:
target: PI3Kδ (p110δ/p85α) Recombinant Human Protein (Homo sapiens (Human), UniProt O00329); test: PI3Kδ scintillation proximity assay; assay type: biochemical; details: 2 μM ATP, 20 μM PIP2
Sequence (O00329 whole entry): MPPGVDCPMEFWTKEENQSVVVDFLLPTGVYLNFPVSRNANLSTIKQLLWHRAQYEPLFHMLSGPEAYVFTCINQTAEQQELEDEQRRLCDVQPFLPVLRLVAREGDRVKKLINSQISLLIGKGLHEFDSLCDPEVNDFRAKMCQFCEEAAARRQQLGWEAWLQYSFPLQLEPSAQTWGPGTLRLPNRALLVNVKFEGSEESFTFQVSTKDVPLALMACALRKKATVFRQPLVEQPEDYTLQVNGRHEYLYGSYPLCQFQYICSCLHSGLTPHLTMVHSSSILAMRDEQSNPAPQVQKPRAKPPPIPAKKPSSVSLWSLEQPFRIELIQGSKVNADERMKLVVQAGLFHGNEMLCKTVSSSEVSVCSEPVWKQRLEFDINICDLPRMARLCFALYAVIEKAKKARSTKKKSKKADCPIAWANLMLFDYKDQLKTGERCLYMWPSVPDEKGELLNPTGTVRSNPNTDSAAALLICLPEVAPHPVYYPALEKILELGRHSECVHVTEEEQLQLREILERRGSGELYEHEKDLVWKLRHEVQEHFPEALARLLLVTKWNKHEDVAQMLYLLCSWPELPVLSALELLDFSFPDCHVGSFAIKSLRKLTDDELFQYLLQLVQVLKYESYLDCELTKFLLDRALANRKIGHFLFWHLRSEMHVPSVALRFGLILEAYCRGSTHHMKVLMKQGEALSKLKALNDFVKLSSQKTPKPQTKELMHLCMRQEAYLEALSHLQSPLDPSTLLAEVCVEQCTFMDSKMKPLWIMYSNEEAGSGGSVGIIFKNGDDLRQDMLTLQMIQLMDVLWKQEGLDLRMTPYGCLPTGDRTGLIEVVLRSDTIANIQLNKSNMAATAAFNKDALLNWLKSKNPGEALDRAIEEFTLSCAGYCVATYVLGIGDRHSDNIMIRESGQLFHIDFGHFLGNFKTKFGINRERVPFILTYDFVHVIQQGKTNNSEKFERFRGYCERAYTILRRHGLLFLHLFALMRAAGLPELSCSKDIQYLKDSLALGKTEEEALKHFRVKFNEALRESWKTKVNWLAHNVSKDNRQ
Sequence (P27986 whole entry partner): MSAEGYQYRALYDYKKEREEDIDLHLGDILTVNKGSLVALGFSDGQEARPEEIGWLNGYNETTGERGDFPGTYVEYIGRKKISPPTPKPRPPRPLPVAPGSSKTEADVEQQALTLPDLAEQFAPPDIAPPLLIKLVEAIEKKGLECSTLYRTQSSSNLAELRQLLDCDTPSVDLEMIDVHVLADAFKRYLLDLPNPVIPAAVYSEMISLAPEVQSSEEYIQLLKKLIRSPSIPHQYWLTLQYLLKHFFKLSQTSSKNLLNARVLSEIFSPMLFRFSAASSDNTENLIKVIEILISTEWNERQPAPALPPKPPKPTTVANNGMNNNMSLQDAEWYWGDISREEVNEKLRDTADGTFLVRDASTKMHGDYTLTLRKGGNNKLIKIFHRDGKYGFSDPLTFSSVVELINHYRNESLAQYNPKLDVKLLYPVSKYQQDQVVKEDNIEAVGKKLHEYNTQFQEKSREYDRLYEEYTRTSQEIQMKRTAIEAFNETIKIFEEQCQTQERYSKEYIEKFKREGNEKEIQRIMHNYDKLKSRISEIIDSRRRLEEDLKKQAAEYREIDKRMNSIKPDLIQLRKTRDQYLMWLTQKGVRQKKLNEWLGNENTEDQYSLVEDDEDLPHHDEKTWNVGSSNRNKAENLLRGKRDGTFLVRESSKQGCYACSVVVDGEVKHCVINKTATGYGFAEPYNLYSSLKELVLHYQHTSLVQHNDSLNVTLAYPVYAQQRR
pIC50: −log10 of the molar value. Structures can show the parent of a compound that is named as a salt.
ENDPOINT: pIC50

                                    compound  result
 0  CC(NC(=O)c1c(N)nn2cccnc12)c1cc(Cl)c2cncn2c1-c1cnccn1 (racemic) [Example 138, trifluoroacetate salt]  > 6.30
 1  CC(NC(=O)c1c(N)nn2cccnc12)c1cc(Cl)c2ccnn2c1N1CCNS(=O)(=O)CC1 (stereo not shown) [Example 110, trifluoroacetate]  > 7.00
 2  CCOC(=O)C1CC=C(c2c(C(C)NC(=O)c3c(N)nn4cccnc34)cc(Cl)c3cn[nH]c23)CC1 (stereo not shown) [Example 97, bistrifluoroacetate]  > 6.30
 3  CCc1n[nH]c2c(-c3ccccc3)c(C(C)NC(=O)c3c(N)nn4cccnc34)cc(Cl)c12 (stereo not shown) [Example 51, trifluoroacetate]  ≤ 5.70
 4  CC(NC(=O)c1c(N)nn2cccnc12)c1cc(Cl)c2cncn2c1N1CCOCC1 (racemic) [Example 145, trifluoroacetate salt]  > 7.00
 5  CC(NC(=O)c1c(N)nn2cccnc12)c1cc(Cl)c2cn[nH]c2c1OCCO (stereo not shown) [Example 84, trifluoroacetate]  > 7.00
 6  COC1CCN(c2c(C(C)NC(=O)c3c(N)nn4cccnc34)cc(Cl)c3cn[nH]c23)C1 (stereo not shown) [Example 91, bis(trifluoroacetate)]  > 7.00
 7  CC1CN(c2c(CNC(=O)c3c(N)nn4cccnc34)cc(Cl)c3c(Cl)ncn23)CCS1(=O)=O (racemic) [Example 169, trifluoroacetate salt]  > 6.30
 8  COc1c(C(C)NC(=O)c2c(N)nn3cccnc23)cc(Cl)c2cn[nH]c12 (stereo not shown) [Example 82, trifluoroacetate]  > 7.00
 9  CC(NC(=O)c1c(N)nn2cccnc12)c1cc(Cl)c2cncn2c1N1CCC(O)CC1 (racemic) [Example 146, trifluoroacetate salt]  > 7.00
10  CCOc1c(C(C)NC(=O)c2c(N)nn3cccnc23)cc(Cl)c2cn(C3CCC3)nc12 (stereo not shown) [Example 10a, trifluoroacetate]  ≤ 5.70
11  CCOc1c(C(C)NC(=O)c2c(N)nn3cccnc23)cc(Cl)c2cn(Cc3ccccc3)nc12 (stereo not shown) [Example 8a, trifluoroacetate]  ≤ 5.70
12  CCOc1c(C(C)NC(=O)c2c(N)nc3ccc(N4CCCCC4)nn23)cc(Cl)c2cn[nH]c12 (stereo not shown)  > 6.30

* * *

biological target: PI3Kγ (p110γ) Recombinant Human Protein (Homo sapiens (Human), UniProt P48736); experiment: PI3K-γ scintillation proximity assay; conditions: 2 μM ATP, 20 μM PIP2
Sequence (P48736 whole entry): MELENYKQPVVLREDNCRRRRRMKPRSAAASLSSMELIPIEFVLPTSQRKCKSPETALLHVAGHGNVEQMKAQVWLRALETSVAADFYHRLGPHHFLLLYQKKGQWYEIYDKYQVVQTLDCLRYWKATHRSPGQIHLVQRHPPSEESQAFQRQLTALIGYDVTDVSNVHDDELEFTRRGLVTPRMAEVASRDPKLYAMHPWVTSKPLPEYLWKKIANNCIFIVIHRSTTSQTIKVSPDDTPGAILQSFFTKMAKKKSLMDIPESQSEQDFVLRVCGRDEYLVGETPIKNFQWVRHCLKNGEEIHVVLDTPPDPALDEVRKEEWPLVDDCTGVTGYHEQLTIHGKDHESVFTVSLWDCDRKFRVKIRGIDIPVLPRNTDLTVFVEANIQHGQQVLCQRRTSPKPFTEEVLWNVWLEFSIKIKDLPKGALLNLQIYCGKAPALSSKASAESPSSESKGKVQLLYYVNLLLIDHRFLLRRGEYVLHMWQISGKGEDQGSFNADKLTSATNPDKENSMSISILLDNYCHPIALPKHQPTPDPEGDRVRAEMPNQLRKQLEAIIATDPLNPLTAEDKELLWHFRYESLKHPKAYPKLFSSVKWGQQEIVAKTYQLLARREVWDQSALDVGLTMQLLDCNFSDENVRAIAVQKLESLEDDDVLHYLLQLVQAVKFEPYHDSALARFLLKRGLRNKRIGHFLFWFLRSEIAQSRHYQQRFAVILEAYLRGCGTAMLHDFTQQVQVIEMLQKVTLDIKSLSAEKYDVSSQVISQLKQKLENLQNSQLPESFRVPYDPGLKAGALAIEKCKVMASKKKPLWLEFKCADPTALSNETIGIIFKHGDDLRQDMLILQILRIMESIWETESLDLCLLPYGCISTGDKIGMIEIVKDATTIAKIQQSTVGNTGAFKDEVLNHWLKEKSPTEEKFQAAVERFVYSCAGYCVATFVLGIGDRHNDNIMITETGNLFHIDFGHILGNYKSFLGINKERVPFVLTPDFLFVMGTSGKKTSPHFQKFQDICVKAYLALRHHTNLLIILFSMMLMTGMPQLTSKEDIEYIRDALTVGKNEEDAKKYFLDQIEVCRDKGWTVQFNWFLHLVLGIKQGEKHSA
pIC50: −log10 of the molar value. Where a name gives a salt, the structure may show the parent alone.
ENDPOINT: pIC50

>>> print(df.to_string())
                                   molecule  endpoint  result
0  CCOc1c(C(C)NC(=O)c2c(N)nn3cccnc23)cc(Cl)c2cn(C3CCC3)nc12 (stereo not drawn) [Example 10a, trifluoroacetate]     pIC50  > 5.70
1  CC(NC(=O)c1c(N)nn2cccnc12)c1cc(Cl)c2cncn2c1N1CCS(=O)(=O)CC1 (single isomer, unassigned) [Example 36A]     pIC50  > 7.00
2  CC(NC(=O)c1c(N)nn2cccnc12)c1cc(Cl)c2c(Cl)cnn2c1N1CCNS(=O)(=O)CC1 (stereo not drawn) [Example 115, trifluoroacetate]     pIC50  > 7.00
